- System under test: PLK3 (human)
- Protocol notes: radiometric filter-binding kinase assay, Kinase HotSpot
- Test conditions: compound 0.5 µM; ATP 10 µM
residual activity values, listed per item
Endpoint label: residual activity (%)

| Compound structure string | Endpoint label | Unit of measurement | Number |
| --- | --- | --- | --- |
| COc1ccc(C(=O)Nc2sc3c(c2C(N)=O)CCCC3)cc1OC | residual activity | % | 95 |
| Cc1nc(-c2ccccc2)c(-c2ccncc2)o1 | residual activity | % | 95.4 |
| N#Cc1c[nH]c2c[nH]/c(=N\Cc3cccnc3)cc2/c1=N\c1ccc(F)c(Cl)c1 | residual activity | % | 91.1 |
| COc1cc2ncnc(Nc3ccc(Oc4ccccc4)cc3)c2cc1OC | residual activity | % | 97.1 |
| C[C@@H]1CCN(C(=O)CC#N)C[C@@H]1N(C)c1ncnc2[nH]ccc12 | residual activity | % | 99.1 |
| COc1cc2ncnc(Nc3ccc(OCc4ccccc4)cc3)c2cc1OC | residual activity | % | 98 |
| COc1ccc2c(c1)c(C1=C(c3c[nH]c4ccccc34)C(=O)NC1=O)cn2CCCN(C)C | residual activity | % | 93 |
| CN(C)c1ccc(/C=C2\C(=O)Nc3ccccc32)cc1 | residual activity | % | 97 |
| CO[C@@H]1[C@H](N(C)C(=O)c2ccccc2)C[C@H]2O[C@]1(C)n1c3ccccc3c3c4c(c5c6ccccc6n2c5c31)C(=O)NC4 | residual activity | % | 95.3 |
| Cc1cccc(-c2nc(C(C)(C)C)[nH]c2-c2ccc3c(c2)OCO3)n1 | residual activity | % | 95.6 |
| COc1cc(Nc2c(C#N)cnc3cc(OCCCN4CCN(C)CC4)c(OC)cc23)c(Cl)cc1Cl | residual activity | % | 98.5 |
| O=C1NC(=O)c2c1c1c3ccccc3[nH]c1n1cncc21 | residual activity | % | 48.2 |
| N#C/C(=C\c1ccc(O)c(O)c1)C(=O)NCc1ccccc1 | residual activity | % | 96.1 |
| O=C1Nc2ccc(Br)cc2/C1=C\c1cc2c([nH]1)CCCC2 | residual activity | % | 97.8 |
| Cn1c2ccccc2c2c3c(c4c5ccccc5n(CCC#N)c4c21)CNC3=O | residual activity | % | 88.1 |

---

- System under test: CHEK1 (human)
- Protocol notes: radiometric filter-binding kinase assay, Kinase HotSpot
- Test conditions: compound 0.5 µM; ATP 10 µM
Endpoint label: residual activity (%)

| Compound structure string | Unit of measurement | Number |
| --- | --- | --- |
| c1ccc2c(-c3ccncc3)c[nH]c2c1 | % | 104 |
| Cn1c2ccccc2c2c3c(c4c5ccccc5n(CCC#N)c4c21)CNC3=O | % | 7.95 |
| COc1ccc(C(=O)Nc2sc3c(c2C(N)=O)CCCC3)cc1OC | % | 112 |
| COc1cc2ncnc(Nc3ccc(OCc4ccccc4)cc3)c2cc1OC | % | 101 |
| C[C@@H]1CCN(C(=O)CC#N)C[C@@H]1N(C)c1ncnc2[nH]ccc12 | % | 94.1 |
| CN(C)S(=O)(=O)c1ccc2c(c1)/C(=C/c1cc3c([nH]1)CCCC3)C(=O)N2 | % | 76.3 |
| CN(C)CCCn1cc(C2=C(c3c[nH]c4ccccc34)C(=O)NC2=O)c2ccccc21 | % | 39.1 |
| O=C1c2ccccc2-c2nc3nnnn3nc21 | % | 112 |
| N#C/C(=C\c1ccc(O)c(O)c1)C(=O)NCc1ccccc1 | % | 89.2 |
| Cc1cncc2cccc(S(=O)(=O)N3CCCN(C(=O)CN)C[C@H]3C)c12 | % | 100 |
| Ic1cccc(CSc2nnc(-c3ccncc3)o2)c1 | % | 96.3 |
| COc1cc2ncnc(Nc3ccc(Oc4ccccc4)cc3)c2cc1OC | % | 97.4 |
| COc1ccc2c(c1)/C(=C/c1cnc[nH]1)C(O)=N2 | % | 76 |
| O=C1Nc2ccc(Br)cc2/C1=C\c1cc2c([nH]1)CCCC2 | % | 81.8 |
| COc1ccc2c(c1)c(C1=C(c3c[nH]c4ccccc34)C(=O)NC1=O)cn2CCCN(C)C | % | 88.8 |
| Fc1ccc(-c2nc3n(c2-c2ccncc2)CCS3)cc1 | % | 95.9 |
| CS(=O)(=O)CCNCc1ccc(-c2ccc3ncnc(Nc4ccc(OCc5cccc(F)c5)c(Cl)c4)c3c2)o1 | % | 100 |
| Cc1nc(-c2ccccc2)c(-c2ccncc2)o1 | % | 106 |
| COc1ccc(S(=O)(=O)N(CCO)c2ccccc2CN(C)C/C=C/c2ccc(Cl)cc2)cc1 | % | 93.5 |
| Cc1cccc(-c2nc(C(C)(C)C)[nH]c2-c2ccc3c(c2)OCO3)n1 | % | 89.8 |
| NC(=O)c1cccc(-c2cc(Nc3ccc(OC(F)(F)F)cc3)ncn2)c1 | % | 94.2 |
| COc1ccc(Cl)cc1NC(=O)Nc1cc(C)nc2ccccc12 | % | 96.6 |
